Sourced from patent US20150140169

Biological target: T1, alpha-s1 casein from Bos taurus
T1 chain: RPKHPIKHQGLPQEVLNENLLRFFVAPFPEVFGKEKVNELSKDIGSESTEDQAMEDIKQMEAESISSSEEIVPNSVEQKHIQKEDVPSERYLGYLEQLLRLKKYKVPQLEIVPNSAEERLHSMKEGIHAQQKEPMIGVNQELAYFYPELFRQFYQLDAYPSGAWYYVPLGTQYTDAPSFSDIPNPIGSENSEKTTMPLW
ENDPOINT_LABEL: αs1 CN, 24 hours, 11° C. (Volume)

>>> numeric_result("camel chymosin variant #165 (L295W) (protein) GKVAREPLTSYLDSQYFGKIYIGTPPQEFTVVFDTGSSDLWVPSIYCKSNVCKNHHRFDPRKSSTFRNLGKPLSIHYGTGSMEGFLGYDTVTVSNIVDPNQTVGLSTEQPGEVFTYSEFDGILGLAYPSLASEYSVPVFDNMMDRHLVARDLFSVYMDRNGQGSMLTLGAIDPSYYTGSLHWVPVTLQQYWQFTVDSVTINGVAVACVGGCQAILDTGTSVLFGPSSDILKIQMAIGATENRYGEFDVNCGNLRSMPTVVFEINGRDYPLSPSAYTSKDQGFCTSGFQGDNNSEWWILGDVFIREYYSVFDRANNRVGLAKAI")
"5.7e+06"
>>> numeric_result("bovine chymosin B variant #74 (A51V, K221M) (protein) GEVASVPLTNYLDSQYFGKIYLGTPPQEFTVLFDTGSSDFWVPSIYCKSNVCKNHQRFDPRKSSTFQNLGKPLSIHYGTGSMQGILGYDTVTVSNIVDIQQTVGLSTQEPGDVFTYAEFDGILGMAYPSLASEYSIPVFDNMMNRHLVAQDLFSVYMDRNGQESMLTLGAIDPSYYTGSLHWVPVTVQQYWQFTVDSVTISGVVVACEGGCQAILDTGTSMLVGPSSDILNIQQAIGATQNQYGEFDIDCDNLSYMPTVVFEINGKMYPLTPSAYTSQDQGFCTSGFQSENHSQKWILGDVFIREYYSVFDRANNLVGLAKAI")
"6.3e+06"
